- Tested on: HS-Sch-2
- protocolText: drug sensitivity score (DSS, CellTiter-Glo viability, 72 h) (DSS (dimensionless)); higher = more sensitive; extreme values may be limits of the assay
measuredProperty: drug sensitivity score
// return just the number, without any unit appended

compound: COc1cc2ncnc(Nc3ccc(F)c(Cl)c3)c2cc1OCCCN1CCOCC1 [Gefitinib] (max concentration tested 10000 nM)
drug sensitivity score: 4.94

INPUT: Short answer please: drug sensitivity score, HS-Sch-2, entry CC1=C(/C=C/C(C)=C/C=C/C(C)=C/C(=O)O)C(C)(C)CCC1 [Tretinoin] (max concentration tested 10000 nM)
OUTPUT: 0

---

Entries and their measured % inhibition follow.
- System: S1507-2
- protocolText: % inhibition of CellTiter-Glo viability at highest tested concentration (72 h), relative to DMSO and benzethonium chloride controls; higher = more inhibition
Kindly write the number and append the unit.

Here is how some molecules turned out for % inhibition.
molecule: COC(=O)c1ccc2c(c1)NC(=O)/C2=C(\Nc1ccc(N(C)C(=O)CN2CCN(C)CC2)cc1)c1ccccc1 [Nintedanib] (max concentration tested 10000 nM)
% inhibition: -3.03%
//
molecule: Cn1cc(C[C@@H](N)C(=O)O)c2ccccc21 [1-methyl-D-tryptophan aq] (max concentration tested 5000 nM)
% inhibition: 0.132%

Please turn your attention to the following entry.
INPUT: Data request, read-out % inhibition, for Cc1ccc(Nc2nccc(N(C)c3ccc4c(C)n(C)nc4c3)n2)cc1S(N)(=O)=O [Pazopanib] (max concentration tested 10000 nM)
OUTPUT: 9.04%
